Test: cn = amount concentration of the nth substance listed, in mol/dm3
Conditions: 293.15 K; 101 kPa; Liquid; c1 = 0.7

| Compound | Readout Units | mass density |
| --- | --- | --- |
| OC[C@@H](O)[C@@H](O)CO [meso-1,2,3,4-butanetetrol] + O | kg/m3 | 1023.78 |
| OC[C@@H](O)[C@@H](O[C@H]1O[C@H](CO)[C@@H](O)[C@H](O)[C@H]1O)[C@H](O)[C@@H](O)CO [4-O-α-D-glucopyranosyl-D-glucitol] + O | kg/m3 | 1062.97 |
| OC[C@@H](O)[C@H](O)[C@@H](O)CO [xylitol] + O | kg/m3 | 1033.72 |
| OC[C@@H](O)[C@@H](O)[C@H](O)[C@H](O)CO [mannitol] + O | kg/m3 | 1041.24 |
| OC[C@@H](O)[C@@H](O)[C@H](O)[C@@H](O)CO [D-sorbitol] + O | kg/m3 | 1043.32 |

----------
Assay: cn = amount concentration of the nth substance listed, in mol/dm3
Conditions: 303.15 K; 101 kPa; Liquid; c1 = 0.3

| Molecule | Readout Units | mass density |
| --- | --- | --- |
| OC[C@@H](O)[C@@H](O)[C@H](O)[C@H](O)CO [mannitol] + O | kg/m3 | 1014.15 |
| OC[C@@H](O)[C@H](O)[C@@H](O)CO [xylitol] + O | kg/m3 | 1010.64 |
| OC[C@@H](O)[C@@H](O)CO [meso-1,2,3,4-butanetetrol] + O | kg/m3 | 1006.74 |
| OC[C@@H](O)[C@@H](O[C@H]1O[C@H](CO)[C@@H](O)[C@H](O)[C@H]1O)[C@H](O)[C@@H](O)CO [4-O-α-D-glucopyranosyl-D-glucitol] + O | kg/m3 | 1025.16 |
| OC[C@@H](O)[C@@H](O)[C@H](O)[C@@H](O)CO [D-sorbitol] + O | kg/m3 | 1014.83 |

----------
Test: cn = amount concentration of the nth substance listed, in mol/dm3
Conditions: 293.15 K; 101 kPa; Liquid; c1 = 0.1
Collected mass density values appear next to each entry.
Measurement Label: mass density (kg/m3)

| Molecule | Recorded Value |
| --- | --- |
| OC[C@@H](O)[C@@H](O[C@H]1O[C@H](CO)[C@@H](O)[C@H](O)[C@H]1O)[C@H](O)[C@@H](O)CO [4-O-α-D-glucopyranosyl-D-glucitol] + O | 1009.45 |
| OC[C@@H](O)[C@H](O)[C@@H](O)CO [xylitol] + O | 1003.31 |
| OC[C@@H](O)[C@@H](O)[C@H](O)[C@H](O)CO [mannitol] + O | 1004.82 |
| OC[C@@H](O)[C@@H](O)[C@H](O)[C@@H](O)CO [D-sorbitol] + O | 1004.76 |
| OC[C@@H](O)[C@@H](O)CO [meso-1,2,3,4-butanetetrol] + O | 1002.06 |

----------
Test: cn = amount concentration of the nth substance listed, in mol/dm3
Conditions: 293.15 K; 101 kPa; Liquid; c1 = 0.5
Measured viscosity, listed per entry.

| Compound | Readout Units | viscosity |
| --- | --- | --- |
| OC[C@@H](O)[C@@H](O)[C@H](O)[C@H](O)CO [mannitol] + O | mPa·s | 1.336 |
| OC[C@@H](O)[C@@H](O[C@H]1O[C@H](CO)[C@@H](O)[C@H](O)[C@H]1O)[C@H](O)[C@@H](O)CO [4-O-α-D-glucopyranosyl-D-glucitol] + O | mPa·s | 1.848 |
| OC[C@@H](O)[C@@H](O)CO [meso-1,2,3,4-butanetetrol] + O | mPa·s | 1.139 |
| OC[C@@H](O)[C@H](O)[C@@H](O)CO [xylitol] + O | mPa·s | 1.207 |
| OC[C@@H](O)[C@@H](O)[C@H](O)[C@@H](O)CO [D-sorbitol] + O | mPa·s | 1.275 |

----------
The reader will find reported viscosity values listed item by item below.
Assay: cn = amount concentration of the nth substance listed, in mol/dm3
Conditions: 313.15 K; 101 kPa; Liquid; c1 = 0.1

| Compound | Readout Units | viscosity |
| --- | --- | --- |
| OC[C@@H](O)[C@@H](O)[C@H](O)[C@H](O)CO [mannitol] + O | mPa·s | 0.6961 |
| OC[C@@H](O)[C@@H](O)CO [meso-1,2,3,4-butanetetrol] + O | mPa·s | 0.6807 |
| OC[C@@H](O)[C@@H](O[C@H]1O[C@H](CO)[C@@H](O)[C@H](O)[C@H]1O)[C@H](O)[C@@H](O)CO [4-O-α-D-glucopyranosyl-D-glucitol] + O | mPa·s | 0.6982 |
| OC[C@@H](O)[C@H](O)[C@@H](O)CO [xylitol] + O | mPa·s | 0.685 |
| OC[C@@H](O)[C@@H](O)[C@H](O)[C@@H](O)CO [D-sorbitol] + O | mPa·s | 0.6892 |

----------
Experiment: cn = amount concentration of the nth substance listed, in mol/dm3
Conditions: 293.15 K; 101 kPa; Liquid; c1 = 1
// values below are reported mass density
Measurement Label: mass density (kg/m3)

| Molecule | Measurement Label | Recorded Value |
| --- | --- | --- |
| OC[C@@H](O)[C@H](O)[C@@H](O)CO [xylitol] + O | mass density | 1048.9 |
| OC[C@@H](O)[C@@H](O)CO [meso-1,2,3,4-butanetetrol] + O | mass density | 1034.32 |
| OC[C@@H](O)[C@@H](O)[C@H](O)[C@@H](O)CO [D-sorbitol] + O | mass density | 1062.52 |
| OC[C@@H](O)[C@@H](O[C@H]1O[C@H](CO)[C@@H](O)[C@H](O)[C@H]1O)[C@H](O)[C@@H](O)CO [4-O-α-D-glucopyranosyl-D-glucitol] + O | mass density | 1089.73 |

----------
Entries and their measured mass density follow.
Assay: cn = amount concentration of the nth substance listed, in mol/dm3
Settings: 303.15 K; 101 kPa; Liquid; c1 = 0.5
Measurement Label: mass density (kg/m3)

| Compound | Measurement Label | Recorded Value |
| --- | --- | --- |
| OC[C@@H](O)[C@@H](O)[C@H](O)[C@@H](O)CO [D-sorbitol] + O | mass density | 1026.88 |
| OC[C@@H](O)[C@H](O)[C@@H](O)CO [xylitol] + O | mass density | 1020.49 |
| OC[C@@H](O)[C@@H](O)CO [meso-1,2,3,4-butanetetrol] + O | mass density | 1013.33 |
| OC[C@@H](O)[C@@H](O)[C@H](O)[C@H](O)CO [mannitol] + O | mass density | 1026.17 |
| OC[C@@H](O)[C@@H](O[C@H]1O[C@H](CO)[C@@H](O)[C@H](O)[C@H]1O)[C@H](O)[C@@H](O)CO [4-O-α-D-glucopyranosyl-D-glucitol] + O | mass density | 1043 |

----------
Experiment: cn = amount concentration of the nth substance listed, in mol/dm3
Conditions: 313.15 K; 101 kPa; Liquid; c1 = 0.6
Decide using viscosity: a value greater than or equal to 0.9 mPa·s is 1 (yes), a smaller one is 0 (no).

| Compound | Label |
| --- | --- |
| OC[C@@H](O)[C@@H](O)[C@H](O)[C@@H](O)CO [D-sorbitol] + O | 0 (no) |
| OC[C@@H](O)[C@@H](O[C@H]1O[C@H](CO)[C@@H](O)[C@H](O)[C@H]1O)[C@H](O)[C@@H](O)CO [4-O-α-D-glucopyranosyl-D-glucitol] + O | 1 (yes) |
| OC[C@@H](O)[C@H](O)[C@@H](O)CO [xylitol] + O | 0 (no) |
| OC[C@@H](O)[C@@H](O)CO [meso-1,2,3,4-butanetetrol] + O | 0 (no) |

----------
Assay: cn = amount concentration of the nth substance listed, in mol/dm3
Conditions: 323.15 K; 101 kPa; Liquid; c1 = 0.4
Measurement Label: mass density (kg/m3)

| Compound | Recorded Value |
| --- | --- |
| OC[C@@H](O)[C@@H](O)[C@H](O)[C@@H](O)CO [D-sorbitol] + O | 1012.93 |
| OC[C@@H](O)[C@@H](O[C@H]1O[C@H](CO)[C@@H](O)[C@H](O)[C@H]1O)[C@H](O)[C@@H](O)CO [4-O-α-D-glucopyranosyl-D-glucitol] + O | 1026.44 |
| OC[C@@H](O)[C@@H](O)CO [meso-1,2,3,4-butanetetrol] + O | 1001.94 |
| OC[C@@H](O)[C@H](O)[C@@H](O)CO [xylitol] + O | 1007.51 |
| OC[C@@H](O)[C@@H](O)[C@H](O)[C@H](O)CO [mannitol] + O | 1011.02 |
